- Experiment Description: AUC (0 to infinity) in ICR mouse at 20 mg/kg,iv administration measured upto 6 hrs by LC-MS/MS analysis
- Type: ADME, organism-based
- Conditions: in vivo
Property Measured: AUC(0-inf) (ng·h/mL)
Quick reminder: number only, in ng·h/mL, skip the unit.

Compound	Units	Reported Value
CC(C)(C)C1CCC(C(O/N=C(\C(=O)N[C@@H]2C(=O)N3C(C(=O)O)=C(CSCCNC(=O)c4ccc(O)c(O)c4Cl)CS[C@H]23)c2csc(N)n2)C(=O)O)CC1.O=C(O)C(F)(F)F (stereo partly drawn)	ng·h/mL	6670
CC(C)(O/N=C(\C(=O)N[C@@H]1C(=O)N2C(C(=O)[O-])=C(C[N+]3(CCNC(=O)c4ccc(O)c(O)c4Cl)CCCC3)CS[C@H]12)c1csc(N)n1)C(=O)[O-].[Na+]	ng·h/mL	11600

Continue with the next compound.
If you can, please state the reported AUC(0-inf) value of Cc1ccc(S(=O)(=O)O)cc1.Nc1nc(/C(=N/OC(C(=O)O)C2CCC(F)(F)CC2)C(=O)N[C@@H]2C(=O)N3C(C(=O)O)=C(CSCCNC(=O)c4ccc(O)c(O)c4Cl)CS[C@H]23)cs1 (stereo partly drawn) .
11600
